Reference source: patent US20260308186A1

Target: STAT3 (Homo sapiens, UniProt P40763)
Construct: Recombinant STAT3 protein (STAT3(G127-1722))
Sequence (P40763 127-722 limits assumed): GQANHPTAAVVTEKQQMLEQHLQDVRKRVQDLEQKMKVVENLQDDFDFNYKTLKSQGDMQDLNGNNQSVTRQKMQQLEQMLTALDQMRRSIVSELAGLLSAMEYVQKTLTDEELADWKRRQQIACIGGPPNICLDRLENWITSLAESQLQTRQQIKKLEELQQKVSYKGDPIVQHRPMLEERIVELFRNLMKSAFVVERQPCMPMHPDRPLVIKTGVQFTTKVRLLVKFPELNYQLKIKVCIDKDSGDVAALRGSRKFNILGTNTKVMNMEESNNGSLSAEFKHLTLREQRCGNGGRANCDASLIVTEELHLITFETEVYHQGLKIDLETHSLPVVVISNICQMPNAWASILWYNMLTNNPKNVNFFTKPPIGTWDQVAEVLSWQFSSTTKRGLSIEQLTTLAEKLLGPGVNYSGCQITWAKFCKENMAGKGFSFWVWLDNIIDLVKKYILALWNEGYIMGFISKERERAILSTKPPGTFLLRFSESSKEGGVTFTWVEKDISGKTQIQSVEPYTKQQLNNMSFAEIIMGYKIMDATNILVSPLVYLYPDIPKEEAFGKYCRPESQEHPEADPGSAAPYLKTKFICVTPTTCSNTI
Experiment: STAT3 Fluorescence Polarization (FP) Assay
Type: binding
Settings: recombinant STAT3 25 nM; probe 5-FAM-GpYLPQTV-NH2 2 nM; 45 min, room temperature; read-out: STAT3 FP IC50
pIC50: −log10 of the molar value.
parameter: pIC50

Worked cases, pIC50 given:
Cc1ccc2onc(C(=O)N3CC[C@H]4CC[C@@H](C(=O)N5CCN(c6ccc7[nH]c(=O)n(C8CCC(=O)NC8=O)c7c6)CC5)N4C(=O)[C@@H](NC(=O)c4ccc5ccc(C(F)(F)P(=O)(O)O)cc5c4)C3)c2c1 (stereo partly shown) [Compound 37]	< 5.00
Cc1ccc2onc(C(=O)N3CC[C@H]4CC[C@@H](C(=O)N5CCN(c6cc(C(C(=O)N7C[C@H](O)C[C@H]7C(=O)N[C@H](C)c7ccc(-c8scnc8C)cc7)C(C)C)on6)CC5)N4C(=O)[C@@H](NC(=O)c4ccc5ccc(C(F)(F)P(=O)(O)O)cc5c4)C3)c2c1 (stereo partly shown) [Compound 33]	5.00 to 6.00
Cc1ccc2onc(C(=O)N3CC[C@H]4CC[C@@H](C(=O)N(C)CC(=O)N[C@H](C(=O)N5C[C@H](O)C[C@H]5C(=O)N[C@@H](C)c5ccc(-c6scnc6C)cc5)C(C)(C)C)N4C(=O)[C@@H](NC(=O)c4ccc5ccc(C(F)(F)P(=O)(O)O)cc5c4)C3)c2c1 [Compound 27]	5.00 to 6.00

Now for another entry.
Request: Returns the measured pIC50 for the input molecule. Input: O=C1CCC(N2Cc3c(C#CCCCCCC(=O)N4CC[C@H]5CC[C@@H](C(=O)N6CC(c7cccnc7)C6)N5C(=O)[C@@H](NC(=O)c5cc6cc(C(F)(F)P(=O)(O)O)ccc6s5)C4)cccc3C2=O)C(=O)N1 (stereo partly shown) [Compound 5]
Response: > 7.00

====

Target: STAT6 (Homo sapiens)
Construct: Recombinant STAT6 protein (STAT6(W123-T658))
Assay: STAT6 Fluorescence Polarization (FP) Assay
Assay type: binding
pIC50: −log10 of the molar value.
Attribute: pIC50

Worked cases, pIC50 given:
CN(C(=O)[C@@H]1CC[C@@H]2CCN(C(=O)CCCCCC#Cc3cccc4c3CN(C3CCC(=O)NC3=O)C4=O)C[C@H](NC(=O)c3cc4cc(C(F)(F)P(=O)(O)O)ccc4[nH]3)C(=O)N21)c1ccccc1 (stereo partly shown) [Compound 1]	5.52 to 6.52
Cc1ccc2[nH]nc(C(=O)N3CC[C@H]4CC[C@@H](C(=O)N(C)CCCCCCC#Cc5cccc6c5CN(C5CCC(=O)NC5=O)C6=O)N4C(=O)[C@@H](NC(=O)c4ccc5ccc(C(F)(F)P(=O)(O)O)cc5c4)C3)c2c1 (stereo partly shown) [Compound 11]	> 6.52
CC(=O)N1CC[C@H]2CC[C@@H](C(=O)Nc3ccc(-c4ccc(NC(=O)CCCCCC#Cc5cccc6c5CN(C5CCC(=O)NC5=O)C6=O)cc4)cc3)N2C(=O)[C@@H](NC(=O)c2cc3cc(C(F)(F)P(=O)(O)O)ccc3[nH]2)C1 (stereo partly shown) [Compound 3]	5.52 to 6.52
Cc1ccc2[nH]nc(C(=O)N3CC[C@H]4CC[C@@H](C(=O)N(C)CCCCCCC#Cc5cccc6c5CN(C5CCC(=O)NC5=O)C6=O)N4C(=O)[C@@H](NC(=O)c4ccc5ccc(CP(=O)(O)O)cc5c4)C3)c2c1 (stereo partly shown) [Compound 15]	5.52 to 6.52
Cc1ccc2[nH]nc(C(=O)N3CC[C@H]4CC[C@@H](C(=O)NCCCCCCCCC(=O)N[C@H](C(=O)N5C[C@H](O)C[C@H]5C(=O)N[C@@H](C)c5ccc(-c6scnc6C)cc5)C(C)(C)C)N4C(=O)[C@@H](NC(=O)c4ccc5ccc(C(F)(F)P(=O)(O)O)cc5c4)C3)c2c1 [Compound 7]	> 6.52
Cc1ccc2[nH]nc(C(=O)N3CC[C@H]4CC[C@@H](C(=O)N(C)CCCCCCC#Cc5cccc6c5CN(C5CCC(=O)NC5=O)C6=O)N4C(=O)[C@@H](NC(=O)c4ccc5ccc(C(F)P(=O)(O)O)cc5c4)C3)c2c1 (stereo partly shown) [Compound 14]	5.52 to 6.52

Now for another entry.
Request: Returns the measured pIC50 for the input compound. Input: Cc1ccc2[nH]nc(C(=O)N3CC[C@H]4CC[C@@H](C(=O)NCCCCCCC#Cc5cccc6c5CN(C5CCC(=O)NC5=O)C6=O)N4C(=O)[C@@H](NC(=O)c4ccc5ccc(C(F)(F)P(=O)(O)O)cc5c4)C3)c2c1 (stereo partly shown) [Compound 9]
Response: > 6.52

====

Molecular target: pSTAT3 (Homo sapiens)
Construct: pY705-STAT3 MSD read-out
Sequence (P40763 whole entry): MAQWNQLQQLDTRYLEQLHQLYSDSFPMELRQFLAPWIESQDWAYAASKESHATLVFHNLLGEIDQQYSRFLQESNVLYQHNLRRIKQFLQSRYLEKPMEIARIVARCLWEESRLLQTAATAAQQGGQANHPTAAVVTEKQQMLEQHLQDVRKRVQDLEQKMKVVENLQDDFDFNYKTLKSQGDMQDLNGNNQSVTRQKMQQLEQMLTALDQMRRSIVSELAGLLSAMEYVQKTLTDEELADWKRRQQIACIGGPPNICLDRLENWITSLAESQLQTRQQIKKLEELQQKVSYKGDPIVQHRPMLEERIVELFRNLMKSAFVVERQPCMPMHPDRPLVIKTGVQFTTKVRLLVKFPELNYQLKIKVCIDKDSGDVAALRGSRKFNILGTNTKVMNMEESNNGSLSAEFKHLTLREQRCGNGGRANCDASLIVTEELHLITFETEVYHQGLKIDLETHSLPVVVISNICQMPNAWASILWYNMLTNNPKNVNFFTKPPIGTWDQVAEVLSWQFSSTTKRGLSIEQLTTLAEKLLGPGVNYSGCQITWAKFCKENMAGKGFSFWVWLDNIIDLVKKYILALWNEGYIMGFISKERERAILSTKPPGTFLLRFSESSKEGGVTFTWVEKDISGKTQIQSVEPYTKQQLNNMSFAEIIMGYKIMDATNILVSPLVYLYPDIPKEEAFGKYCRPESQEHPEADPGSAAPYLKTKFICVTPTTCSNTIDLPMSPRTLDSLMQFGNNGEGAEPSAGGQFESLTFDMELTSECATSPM
Assay: MSD-pSTAT-PBMC Assay, pSTAT3 (IL-6 stimulated PBMC)
Assay type: cell-based
Conditions: read-out: pSTAT3 IC50, compound 3 hrs, then 10 ng/mL IL-6 for 10 min, pY705-STAT3
Attribute: IC50

Worked cases, IC50 given:
Cc1ccc2[nH]nc(C(=O)N3CC[C@H]4CC[C@@H](C(=O)NCCCCCCCCC(=O)N[C@H](C(=O)N5C[C@H](O)C[C@H]5C(=O)N[C@@H](C)c5ccc(-c6scnc6C)cc5)C(C)(C)C)N4C(=O)[C@@H](NC(=O)c4ccc5ccc(C(F)(F)P(=O)(O)O)cc5c4)C3)c2c1 [Compound 7]	> 3 µM
CCCC(=O)SCCOP(=O)(OCCSC(=O)CCC)C(F)(F)c1ccc2sc(C(=O)N[C@H]3CN(C(=O)CCCCCC#Cc4cccc5c4CN(C4CCC(=O)NC4=O)C5=O)CC[C@H]4CC[C@@H](C(=O)N5CC(c6cnccc6N(C)C)C5)N4C3=O)cc2c1 (stereo partly shown) [Compound 38]	< 0.1 µM

Request: Returns the measured IC50 for the input compound. Input: CCCC(=O)SCCOP(=O)(OCCSC(=O)CCC)C(F)(F)c1ccc2ccc(C(=O)N[C@H]3CN(C(=O)c4n[nH]c5ccc(C)cc45)CC[C@H]4CC[C@@H](C(=O)NCCCCCCC#Cc5cccc6c5CN(C5CCC(=O)NC5=O)C6=O)N4C3=O)cc2c1 (stereo partly shown) [Compound 10]
Response: > 3 µM

Request: Returns the measured IC50 for the input compound. Input: CN(C(=O)[C@@H]1CC[C@@H]2CCN(C(=O)CCCCCC#Cc3cccc4c3CN(C3CCC(=O)NC3=O)C4=O)C[C@H](NC(=O)c3cc4cc(C(F)(F)P(=O)(OCOC(=O)C(C)(C)C)OCOC(=O)C(C)(C)C)ccc4[nH]3)C(=O)N21)c1ccccc1 (stereo partly shown) [Compound 2]
Response: 1 to 3 µM

====

Molecular target: STAT3 (Homo sapiens, UniProt P40763)
Construct: Recombinant STAT3 protein (STAT3(G127-1722))
Assay: STAT3 Fluorescence Polarization (FP) Assay
Format: binding
pIC50: −log10 of the molar value.
Attribute: pIC50

Worked cases, pIC50 given:
Cc1ccc2[nH]nc(C(=O)N3CC[C@H]4CC[C@@H](C(=O)N(C)CCCCCCC#Cc5cccc6c5CN(C5CCC(=O)NC5=O)C6=O)N4C(=O)[C@@H](NC(=O)c4ccc5ccc(CP(=O)(O)O)cc5c4)C3)c2c1 (stereo partly drawn)	< 5.00
CC(=O)N1CC[C@H]2CC[C@@H](C(=O)Nc3ccc(-c4ccc(NC(=O)CCCCCC#Cc5cccc6c5CN(C5CCC(=O)NC5=O)C6=O)cc4)cc3)N2C(=O)[C@@H](NC(=O)c2cc3cc(C(F)(F)P(=O)(O)O)ccc3[nH]2)C1 (stereo partly drawn)	6.00 to 7.00

Now for another entry.
Request: Returns the measured pIC50 for the input molecule. Input: CN(C(=O)[C@@H]1CC[C@@H]2CCN(C(=O)CCCCCC#Cc3cccc4c3CN(C3CCC(=O)NC3=O)C4=O)C[C@H](NC(=O)c3cc4cc(C(F)(F)P(=O)(O)O)ccc4[nH]3)C(=O)N21)c1ccccc1 (stereo partly drawn)
Response: 5.00 to 6.00

====

Molecular target: STAT6 (Homo sapiens)
Construct: Recombinant STAT6 protein (STAT6(W123-T658))
Sequence (P42226 123-658): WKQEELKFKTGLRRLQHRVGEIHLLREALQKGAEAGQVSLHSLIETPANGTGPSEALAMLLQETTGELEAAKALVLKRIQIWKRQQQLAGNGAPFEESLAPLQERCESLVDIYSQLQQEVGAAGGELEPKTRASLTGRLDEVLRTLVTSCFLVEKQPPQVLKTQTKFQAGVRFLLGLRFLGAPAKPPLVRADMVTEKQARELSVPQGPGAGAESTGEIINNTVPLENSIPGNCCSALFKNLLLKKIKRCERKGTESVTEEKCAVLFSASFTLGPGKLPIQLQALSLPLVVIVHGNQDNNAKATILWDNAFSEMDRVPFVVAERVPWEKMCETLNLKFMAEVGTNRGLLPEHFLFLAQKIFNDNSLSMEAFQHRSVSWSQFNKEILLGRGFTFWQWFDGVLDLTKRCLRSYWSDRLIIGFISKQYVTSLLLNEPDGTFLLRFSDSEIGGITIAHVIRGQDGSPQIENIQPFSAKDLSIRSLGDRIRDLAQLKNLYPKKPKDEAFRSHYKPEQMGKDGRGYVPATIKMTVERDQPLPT
Assay: STAT6 Fluorescence Polarization (FP) Assay
Format: binding
Conditions: recombinant STAT6(W123-T658) 250 nM; probe 5-FAM-Ap[…]-NH2 2 nM; 45 min, room temperature; read-out: STAT6 FP IC50
parameter: IC50

O=C1CCC(N2Cc3c(C#CCCCCCC(=O)N4CC[C@H]5CC[C@@H](C(=O)N6CC(c7cccnc7)C6)N5C(=O)[C@@H](NC(=O)c5cc6cc(C(F)(F)P(=O)(O)O)ccc6s5)C4)cccc3C2=O)C(=O)N1 (stereo partly shown)	3 to 30 µM
CN(C)c1ccncc1C1CN(C(=O)[C@@H]2CC[C@@H]3CCN(C(=O)CCCCCC#Cc4cccc5c4CN(C4CCC(=O)NC4=O)C5=O)C[C@H](NC(=O)c4cc5cc(C(F)(F)P(=O)(O)O)ccc5s4)C(=O)N32)C1 (stereo partly shown)	3 to 30 µM
Cc1ccc2onc(C(=O)N3CC[C@H]4CC[C@@H](C(=O)N5CCN(c6ccc7[nH]c(=O)n(C8CCC(=O)NC8=O)c7c6)CC5)N4C(=O)[C@@H](NC(=O)c4ccc5ccc(C(F)(F)P(=O)(O)O)cc5c4)C3)c2c1 (stereo partly shown)	< 0.3 µM

Now for another entry.
Request: Returns the measured IC50 for the input compound. Input: Cc1ccc2onc(C(=O)N3CC[C@H]4CC[C@@H](C(=O)N(C)CCC#Cc5cccc6c5CN(C5CCC(=O)NC5=O)C6=O)N4C(=O)[C@@H](NC(=O)c4ccc5ccc(C(F)(F)P(=O)(O)O)cc5c4)C3)c2c1 (stereo partly shown)
Response: < 0.3 µM
